Test system: secreted acid phosphatase (SAP)
Construct: native enzyme activity in cell-free culture supernatant
experiment.notes: pNPP phosphatase assay, compound added directly to control cell-free supernatant, dose-dependent
Type: biochemical, Leishmania tarentolae
pIC50: −log10 of the molar value.
endpoint: pIC50

Consider the compound shown here: `COc1cc(/C=N/NC(=S)SC)cc(OC)c1O` What is its recorded pIC50?
4.10 to 4.22
